- Tested on: SW900
- experiment_summary: 3D cell viability (CTG)
- Type: cell-based
- assay_setup: Homo sapiens; SW900, KRAS G12V, 3D culture
quantity_name: IC50

Bench note: what IC50 did Nc1nc(N2CCC3(CCC[C@H]3N)CC2)cnc1Sc1ccnc(Cl)c1Cl [Compound A] show? > 10 µM

----------
- Tested on: NCI-H2009
- experiment_summary: 3D cell viability (CTG)
- Format: cell-based
- assay_setup: Homo sapiens; NCI-H2009, KRAS G12A, 3D culture
quantity_name: IC50 (µM)
Give just the number in µM; leave the unit off.

# input compound: Nc1nc(N2CCC3(CCC[C@H]3N)CC2)cnc1Sc1ccnc(Cl)c1Cl ; wanted: its IC50 0.3
